# experiment.description: Cell viability assay (MTT), L929
# Type: cell-based, Mus musculus
# recorded.conditions: mouse, L929 fibroblast cells, 31.2 µg/ml
So I've got a bunch of compounds here, and I need their viability at 24 h, 31.2 µg/ml values.
Answer format: number, then unit.

The examples below pair each entry with its known result.
C/C(=N\Nc1nc(-c2ccc(C)cc2)cs1)c1ccc(Nc2nc(N)nc(N)n2)cc1 [Compound 4c]	105%
C/C(=N\Nc1nc(-c2ccc(I)cc2)cs1)c1ccc(Nc2nc(N)nc(N)n2)cc1 [Compound 4e]	108%
C/C(=N\Nc1nc(-c2ccc(F)cc2)cs1)c1ccc(Nc2nc(N)nc(N)n2)cc1 [Compound 4a]	111%
C/C(=N\Nc1nc(-c2ccc(Br)cc2)cs1)c1ccc(Nc2nc(N)nc(N)n2)cc1 [Compound 4d]	113%
C/C(=N\Nc1nc(-c2ccc(Cl)c(Cl)c2)cs1)c1ccc(Nc2nc(N)nc(N)n2)cc1 [Compound 4i]	108%
C/C(=N\NC(N)=S)c1ccc(Nc2nc(N)nc(N)n2)cc1 [Compound 3]	112%

The following compounds each have a reported value; give each one's viability at 24 h, 31.2 µg/ml.
1. C/C(=N\Nc1nc(-c2ccccc2)cs1)c1ccc(Nc2nc(N)nc(N)n2)cc1 [Compound 4k]
2. C/C(=N\Nc1nc(-c2ccc(Cl)cc2)cs1)c1ccc(Nc2nc(N)nc(N)n2)cc1 [Compound 4b]
3. C/C(=N\Nc1nc(-c2ccc([N+](=O)[O-])cc2)cs1)c1ccc(Nc2nc(N)nc(N)n2)cc1 [Compound 4h]

["111%", "113%", "114%"]

Hey, just so you know, these numbers are from paper PMC5854716.
